Numbers sourced from patent US20100261660A1.

system: T1, Soluble CTLA-4-Ig (extracellular domain of human CTLA-4 fused to the Fc portion of human IgG1) (human, UniProt P16410 36-161, FITC-conjugated in the FACS binding assays)
T1 construct: extracellular domain; bought from R&D Systems; also called sCTLA-4-Ig; CTLA-4-Ig Fc; not shown: Fc portion of human IgG1
T1 sequence (P16410 36-161): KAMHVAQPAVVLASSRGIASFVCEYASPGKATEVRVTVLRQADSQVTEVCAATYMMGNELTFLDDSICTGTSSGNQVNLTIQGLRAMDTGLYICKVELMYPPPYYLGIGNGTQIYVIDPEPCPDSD
method_notes: competitive FACS on transfected cells, FITC-sCTLA-4-Ig with biotin-sCD28-Ig; grade 0-2 of CTLA-4/CD28 ratio vs WT hB7-1
measurement_label: Binding Score

INSERT INTO measurements (binder, endpoint_value) VALUES
  ('Round 2 CTLA4BP 2x4-g9 (ligand) VIHVTKEVKEVATLSCGHNVSVEELAQTRIYWQKDKKMVLTMMSGDMNIWPEYKNQTIFDITNNLSIVILALRPSDEGTYECVVLKYEKDAFKQEHLAEVMLSVKADFPTPSISDFEIPPSNIRRIICSTSGGFPEPRLAWMEDGEELNAISTTVSQDPGTELCTVSSKLDFNMTTNHSFMCLIRYGHLRVNQTFNWNTPKQEHFPDNLLPSWAITLISVKGIFVICCLTYCFAPRGRERKSNGRLRRESVHPV', 1),
  ('Round 2 CTLA4 A-H4-5* (ligand) ITPKSVTKRVKETVMLSCDYSTSTEELTSLRIYWQKDSKMVLAILPGKVQVWPEYKNRTITDMNDNPRIVILALRLSDKGTYTCVVQKNENGSFRREHLTSVTLSIRADFPVPSITDIGHPAPNVKRIRCSASGGFPEPRLYWLENGEELNATNTTVSQDPGTELYMISSELDFNVTNNHSIVCLIKYGELSVSQIFPWSKPKQEPPIDQLPFWVIIPVSGALVLTAVVLYCLACRHVARWKRTRRNEETVGTERLSPIYLGSAQSSG', 1),
  ('Round 2 CTLA4BP-5x3-11b (ligand) VIHVTKEVKEVATLSCGHNVSVEELAQTRIYWQKEKKMVLTMMSGDMNIWPEYKNRTIFDITNNLSIVILALRSSDEGTYECVVLKYEKDAFKREHLAEVTLSVKADFPTPSITDFEIPPSNIRRIICSTSGGFPEPHLSWLENGEELNAISTTVSQDPETELYTVSSKLDFNMTTNRSFVCLIKYGHLRVNQTFNWNTPKQEHFPDNLLPSWAITLISVNGIFVICCLTYCFAPRCRERRSNERLRRESVRPV', 1);
